measured.target: native CB1 receptors (Rattus norvegicus, UniProt P20272)
Sequence (P20272 whole entry): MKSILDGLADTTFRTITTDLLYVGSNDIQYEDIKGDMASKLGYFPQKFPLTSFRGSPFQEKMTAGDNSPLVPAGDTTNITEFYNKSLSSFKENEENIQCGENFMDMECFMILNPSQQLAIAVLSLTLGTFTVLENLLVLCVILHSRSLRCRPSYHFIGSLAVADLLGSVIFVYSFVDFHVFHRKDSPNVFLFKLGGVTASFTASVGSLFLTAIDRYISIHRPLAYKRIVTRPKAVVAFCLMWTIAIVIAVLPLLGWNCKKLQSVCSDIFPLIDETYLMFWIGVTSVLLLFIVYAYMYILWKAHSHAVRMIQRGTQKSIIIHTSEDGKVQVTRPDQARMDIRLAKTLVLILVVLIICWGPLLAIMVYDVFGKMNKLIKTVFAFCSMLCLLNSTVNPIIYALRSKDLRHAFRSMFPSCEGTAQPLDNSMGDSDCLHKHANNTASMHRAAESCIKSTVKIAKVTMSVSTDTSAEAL
assay.remarks: CB1 receptor rat binding assay ([3H]SR141716A, rat brain membranes)
test.settings: rat brain membranes, [3H]SR141716A; read-out: Binding rat pKi (converted)

| molecule | measured.target | Ki |
| --- | --- | --- |
| O=C(NCCCC(F)(F)F)c1ccc2c(c1)N=C(c1ccc(Cl)s1)c1ccccc1S2 [drawing 1176] | native CB1 receptors (Rattus norvegicus, UniProt P20272) | 0.501 nM |
| CCOCCNC(=O)c1ccc2c(c1)N=C(c1cccc(Br)c1)c1ccccc1S2 [drawing 1323] | native CB1 receptors (Rattus norvegicus, UniProt P20272) | 25.1 nM |
| O=C(NCCC(F)(F)F)c1ccc2c(c1)N=C(c1ccsc1)c1ccccc1S2 [drawing 1442] | native CB1 receptors (Rattus norvegicus, UniProt P20272) | 7.94 nM |
| CC(CNC(=O)c1ccc2c(c1)N=C(c1cccc(Cl)c1)c1cc(F)ccc1S2)c1ccccc1 (centres unmarked) [drawing 1196] | native CB1 receptors (Rattus norvegicus, UniProt P20272) | 12.6 nM |
| CCCCNC(=O)c1ccc2c(c1)N=C(c1ccc(Cl)cc1)c1cc(F)ccc1S2 [drawing 1500] | native CB1 receptors (Rattus norvegicus, UniProt P20272) | 10 nM |
| CCCC1=Nc2cc(C(=O)NCCc3ccc(OC)cc3OC)ccc2Sc2ccccc21 [drawing 1536] | native CB1 receptors (Rattus norvegicus, UniProt P20272) | 79.4 nM |
| CCCCNC(=O)c1ccc2c(c1)N=C(c1ccc(Cl)cc1)c1ccc(Cl)cc1S2 [drawing 1187] | native CB1 receptors (Rattus norvegicus, UniProt P20272) | 12.6 nM |
| O=C(NN1CCCC1)c1ccc2c(c1)N=C(c1ccc(Cl)cc1)c1ccccc1S2 [drawing 1502] | native CB1 receptors (Rattus norvegicus, UniProt P20272) | 63.1 nM |
